Hello, the source for this data is the supplement of paper PMC9262897, in case you need it.

Tested on: E. coli TESEC Mtb Alr
ASSAY OVERVIEW: growth (OD600 after 10 h); higher = more growth (less inhibition)
REPORTED CONDITIONS: arabinose 10000000 nM; compound 0.1 mM; raw OD600 reference: median of DMSO wells 0.146, cell-free background 0.041
Structures can show the parent of a compound that is named as a salt.
Kind request: treat 0.1 as inclusive, so growth at 0.1 or higher is yes, anything lower is no.

Reported growth at or above 0.1? CC(=O)OCC(=O)[C@@]12N=C(C)O[C@@H]1C[C@H]1[C@@H]3CCC4=CC(=O)C=C[C@]4(C)[C@H]3[C@@H](O)C[C@@]12C yes

Given Nc1ccc(O)c(C(=O)O)c1 , state whether its growth is at least 0.1. yes

Textbook exercise: given the entry Cc1ncc([N+](=O)[O-])n1CCO , state whether its growth is greater than or equal to 0.1. yes

State whether the measured growth reaches 0.1, counting equality as reaching it, for C[C@H]1O[C@@H](O[C@H]2[C@@H](O)C[C@H](O[C@H]3[C@@H](O)C[C@H](O[C@H]4CC[C@@]5(C)[C@H](CC[C@@H]6[C@@H]5C[C@@H](O)[C@]5(C)[C@@H](C7=CC(=O)OC7)CC[C@]65O)C4)O[C@@H]3C)O[C@@H]2C)C[C@H](O)[C@@H]1O yes

Entry CC(C)OC(=O)CCC/C=C\C[C@@H]1[C@@H](CC[C@@H](O)CCc2ccccc2)[C@H](O)C[C@@H]1O : is its growth no less than 0.1? no

Does growth meet or surpass 0.1 for CN[C@@H]1[C@@H](O)[C@@H](O[C@@H]2[C@@H](O)[C@H](O[C@H]3OC(CN)=CC[C@H]3N)[C@@H](N)C[C@H]2N)OC[C@]1(C)O [Sisomicin sulfate] ? no

Hello, I need to know if CN1CCN(C(c2ccccc2)c2ccc(Cl)cc2)CC1 (configuration not stated) [Chlorcyclizine hydrochloride] has measured growth not below 0.1. Thanks! yes
